- System: SNK-6 (IL-2 2.5 ng/mL);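 also: normalised to DMSO-only wells as negative and benzethonium chloride as positive control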
- TEST DESCRIPTION: percent inhibition of viability; higher = more inhibition
- CONDITION CONTEXT: 72 h; 10 nM
EXPERIMENTAL READOUT: percent inhibition of viability (%)

- COMPOUND: "CN(C)C[C@@H]1CCn2cc(c3ccccc32)C2=C(C(=O)NC2=O)c2cn(c3ccccc23)CCO1 [Ruboxistaurin] (max concentration tested 10000 nM)"
  ASSAYED SYSTEM: "SNK-6 (IL-2 2.5 ng/mL)"
  REPORTED: 1.49
- COMPOUND: "Clc1ccccc1C(c1ccccc1)(c1ccccc1)n1cccn1 [TRAM-34] (max concentration tested 1000 nM)"
  ASSAYED SYSTEM: "SNK-6 (IL-2 2.5 ng/mL)"
  REPORTED: 2.07
- COMPOUND: "COc1cc2c(cc1-c1c(C)noc1C)ncc1[nH]c(=O)n([C@H](C)c3ccccn3)c12 [I-BET151] (max concentration tested 10000 nM)"
  ASSAYED SYSTEM: "SNK-6 (IL-2 2.5 ng/mL)"
  REPORTED: -7.3
